Where these numbers come from: the PETadex activity labels (doi:10.1016/j.bbalip.2005.11.003)

- Substrate: vinyl propionate
- Measurement Parameters: pH 7; 25 °C
Readout Type: kcat/Km (M⁻¹ s⁻¹)
All answers are understood in M⁻¹ s⁻¹, so give the number only.

Here are 2 proteins together with their reported answers.
Protein	Reported
unnamed (protein) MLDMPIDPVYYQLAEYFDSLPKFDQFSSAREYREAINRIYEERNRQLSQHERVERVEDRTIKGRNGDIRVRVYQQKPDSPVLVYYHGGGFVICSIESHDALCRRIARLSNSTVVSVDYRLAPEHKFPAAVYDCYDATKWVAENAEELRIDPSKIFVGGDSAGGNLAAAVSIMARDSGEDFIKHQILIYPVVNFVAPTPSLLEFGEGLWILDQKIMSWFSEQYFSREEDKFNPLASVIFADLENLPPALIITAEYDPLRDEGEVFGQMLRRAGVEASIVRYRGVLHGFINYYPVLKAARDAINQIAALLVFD	28600
unnamed (protein) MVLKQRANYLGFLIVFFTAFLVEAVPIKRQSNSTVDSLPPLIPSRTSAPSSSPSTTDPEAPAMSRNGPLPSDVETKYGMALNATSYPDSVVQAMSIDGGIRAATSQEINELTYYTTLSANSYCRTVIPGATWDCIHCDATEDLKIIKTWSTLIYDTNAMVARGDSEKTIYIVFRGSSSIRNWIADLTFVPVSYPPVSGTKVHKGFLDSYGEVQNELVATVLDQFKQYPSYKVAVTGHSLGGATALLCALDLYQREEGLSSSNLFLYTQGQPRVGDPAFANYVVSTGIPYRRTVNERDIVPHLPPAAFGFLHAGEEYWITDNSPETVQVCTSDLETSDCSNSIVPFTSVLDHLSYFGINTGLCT	105000

Below: the item to evaluate.
In: Determine its reported kcat/Km: unnamed (protein) MRSSLVLFFVSAWTALASPIRREVSQDLFNQFNLFAQYSAAAYCGKNNDAPAGTNITCTGNACPEVEKADATFLYSFEDSGVGDVTGFLALDNTNKLIVLSFRGSRSIENWIGNLNFDLKEINDICSGCRGHDGFTSSWRSVADTLRQKVEDAVREHPDYRVVFTGHSLGGALATVAGADLRGNGYDIDVFSYGAPRVGNRAFAEFLTVQTGGTLYRITHTNDIVPRLPPREFGYSHSSPEYWIKSGTLVPVTRNDIVKIEGIDATGGNNQPNIPDIPAHLWYFGLIGTCL
Out: 19500
